Values from patent US10626144B2

molecular target: N-type calcium channels (Cav2.2) (Rattus norvegicus (Rat), UniProt Q02294); assay: biochemical; type: binding; conditions: value in brackets; rat cerebral cortex, [125I]ω-conotoxin GVIA 0.001 nM; read-out: IC50 Cav2.2
Square brackets hold non-standard residues; d marks the D form. Peptide text beside a SMILES is read from it. * marks the point of attachment. ξ: configuration not given here. Dab(3S-OH) = NC[C@H](O)[C@H](N)C(=O)O; Lys(5ξ-OH) = NCC(O)CC[C@H](N)C(=O)O; ΔZArg = N=C(N)NCC/C=C(\N)C(=O)O; aThr = C[C@H](O)[C@H](N)C(=O)O; dOrn = NCCC[C@@H](N)C(=O)O; NH(CH2)4NH2 = NCCCCN*
Observed Property: pIC50
API: returns pIC50 as number; meaning -log10 of concentration in mol/L.

Solved cases (3 shown):
* N=C(N)NCC/C=C(\NC(=O)[C@H](CCC(O)CN)NC(=O)[C@H](Cc1c[nH]cn1)NC(=O)[C@@H]1CCCN1C(=O)[C@@H](CCCN)NC(=O)CNC(=O)[C@@H](NC(=O)[C@@H](NC(=O)[C@@H](N)CCCCN)[C@@H](O)CN)[C@@H](O)CN)C(=O)N[C@@H](CCC(O)CN)C(=O)NCCCCN (stereo partly drawn) [Odilorhabdin A] (H-K[Dab(3S-OH)][Dab(3S-OH)]G[dOrn]PH[Lys(5ξ-OH)][ΔZArg][Lys(5ξ-OH)]-{NH(CH2)4NH2}; N-terminus and C-terminus assumed) | 7.60
* C[C@H](NC(=O)[C@@H](NC(=O)[C@@H](N)CCCCN)[C@@H](O)CN)C(=O)NCC(=O)N[C@H](CCCN)C(=O)N1CCC[C@H]1C(=O)N[C@@H](CC(N)=O)C(=O)N[C@@H](CCCCN)C(=O)N/C(=C\CCNC(=N)N)C(=O)O [24.112] (H-K[Dab(3S-OH)]AG[dOrn]PNK[ΔZArg]-OH) | 6.10
* N=C(N)NCC/C=C(\NC(=O)[C@H](CCCCN)NC(=O)[C@H](Cc1c[nH]cn1)NC(=O)[C@@H]1CCCN1C(=O)[C@@H](CCCN)NC(=O)CNC(=O)[C@@H](NC(=O)[C@@H](NC(=O)[C@@H](N)CCCCN)[C@@H](O)CN)[C@@H](O)CN)C(=O)N[C@@H](CCCCN)C(=O)NCCCCN [Odilomycin C, reference compound] (H-K[Dab(3S-OH)][Dab(3S-OH)]G[dOrn]PHK[ΔZArg]K-{NH(CH2)4NH2}; N-terminus and C-terminus assumed) | 8.05

Ask | Reported pIC50 for C[C@H](O)[C@H](NC(=O)[C@@H](NC(=O)[C@@H](N)CCCCN)[C@@H](O)CN)C(=O)NCC(=O)N[C@H](CCCN)C(=O)N1CCC[C@H]1C(=O)N[C@@H](Cc1cnc[nH]1)C(=O)N[C@@H](CCCCN)C(=O)N/C(=C\CCNC(=N)N)C(=O)N[C@@H](CCCCN)C(=O)NCCCCN [25.1] (H-K[Dab(3S-OH)][aThr]G[dOrn]PHK[ΔZArg]K-{NH(CH2)4NH2}) : what is it?
Reply | 8.52

---

system: Escherichia coli ATCC 25922; assay: MIC, broth microdilution (CLSI), reference strain; conditions: CAMHB
Square brackets hold non-standard residues; d marks the D form. Peptide text beside a SMILES is read from it. * marks the point of attachment. Phe(3,4-(OMe)2) = COc1ccc(C[C@H](N)C(=O)O)cc1OC; Phe(4-tBu) = CC(C)(C)c1ccc(C[C@H](N)C(=O)O)cc1; Phe(3-Me) = Cc1cccc(C[C@H](N)C(=O)O)c1; Dab(3S-OH) = NC[C@H](O)[C@H](N)C(=O)O; ΔZArg = N=C(N)NCC/C=C(\N)C(=O)O; dOrn = NCCC[C@@H](N)C(=O)O; Orn = NCCC[C@H](N)C(=O)O; Dab = NCC[C@H](N)C(=O)O; NH(CH2)4NH2 = NCCCCN*
Observed Property: Ec: MIC Escherichia coli ATCC 25922

Solved cases (5 shown):
- C[C@H](NC(=O)[C@@H]1CCCN1C(=O)[C@@H](CCCN)NC(=O)CNC(=O)[C@@H](NC(=O)[C@@H](NC(=O)[C@@H](N)CCCCN)[C@@H](O)CN)[C@@H](O)CN)C(=O)N[C@@H](CCCCN)C(=O)N/C(=C\CCNC(=N)N)C(=O)N[C@@H](CCCCN)C(=O)NCCCCN [22.4] (H-K[Dab(3S-OH)][Dab(3S-OH)]G[dOrn]PAK[ΔZArg]K-{NH(CH2)4NH2}): ++ (≤8 μg/mL)
- C[C@@H](O)[C@H](NC(=O)[C@H](CCN)NC(=O)[C@@H](N)CCCCN)C(=O)NCC(=O)N[C@H](CCCN)C(=O)N1CCC[C@H]1C(=O)N[C@@H](Cc1cnc[nH]1)C(=O)N[C@@H](CCCCN)C(=O)N/C(=C\CCNC(=N)N)C(=O)N[C@@H](CCCCN)C(=O)NCCCCN [15.3] (H-K[Dab]TG[dOrn]PHK[ΔZArg]K-{NH(CH2)4NH2}): − (>32 μg/mL)
- COc1ccc(C[C@H](NC(=O)[C@@H]2CCCN2C(=O)[C@@H](CCCN)NC(=O)CNC(=O)[C@H](CCCN)NC(=O)[C@@H](NC(=O)[C@@H](N)CCCCN)[C@@H](O)CN)C(=O)N[C@@H](CCCCN)C(=O)N/C(=C\CCNC(=N)N)C(=O)O)cc1OC [211.10] (H-K[Dab(3S-OH)][Orn]G[dOrn]P[Phe(3,4-(OMe)2)]K[ΔZArg]-OH): ++ (≤8 μg/mL)
- Cc1cccc(C[C@H](NC(=O)[C@@H]2CCCN2C(=O)[C@@H](CCCN)NC(=O)CNC(=O)[C@H](CCN)NC(=O)[C@@H](NC(=O)[C@@H](N)CCCCN)[C@@H](O)CN)C(=O)N[C@@H](CCCCN)C(=O)N/C(=C\CCNC(=N)N)C(=O)O)c1 [21.8] (H-K[Dab(3S-OH)][Dab]G[dOrn]P[Phe(3-Me)]K[ΔZArg]-OH): ++ (≤8 μg/mL)
- C[C@H](NC(=O)/C(=C/CCNC(=N)N)NC(=O)[C@H](CCCCN)NC(=O)[C@H](Cc1cnc[nH]1)NC(=O)[C@@H]1CCCN1C(=O)[C@@H](CCCN)NC(=O)CNC(=O)[C@H](C)NC(=O)[C@@H](NC(=O)[C@@H](N)CCCCN)[C@@H](O)CN)C(N)=O [24.7] (H-K[Dab(3S-OH)]AG[dOrn]PHK[ΔZArg]A-NH2): ++ (≤8 μg/mL)

Ask | Hi! What's the reported Ec: MIC Escherichia coli ATCC 25922 for C[C@H](NC(=O)[C@@H](NC(=O)[C@@H](N)CCCCN)[C@@H](O)CN)C(=O)NCC(=O)N[C@H](CCCN)C(=O)N1CCC[C@H]1C(=O)N[C@@H](Cc1ccc(C(C)(C)C)cc1)C(=O)N[C@@H](CCCCN)C(=O)N/C(=C\CCNC(=N)N)C(=O)O [24.93] (H-K[Dab(3S-OH)]AG[dOrn]P[Phe(4-tBu)]K[ΔZArg]-OH) on Escherichia coli ATCC 25922?
Reply | ++ (≤8 μg/mL)

Ask | Hi! What's the reported Ec: MIC Escherichia coli ATCC 25922 for C[C@H](NC(=O)/C(=C/CCNC(=N)N)NC(=O)[C@H](CCCCN)NC(=O)[C@H](Cc1cnc[nH]1)NC(=O)[C@@H]1CCCN1C(=O)[C@@H](CCCN)NC(=O)CNC(=O)[C@H](C)NC(=O)[C@H](CCN)NC(=O)[C@@H](N)CCCCN)C(=O)NCCCCN [14.23] (H-K[Dab]AG[dOrn]PHK[ΔZArg]A-{NH(CH2)4NH2}) on Escherichia coli ATCC 25922?
Reply | − (>32 μg/mL)
